# Lookup of reported Emax keyed by entry
Molecular target: human mAChR M1 (Homo sapiens, UniProt P11229)
Construct: host or cells: CHO-K1 cells (ATCC), stably transfected using Lipofectamine2000
Sequence (P11229 1-460): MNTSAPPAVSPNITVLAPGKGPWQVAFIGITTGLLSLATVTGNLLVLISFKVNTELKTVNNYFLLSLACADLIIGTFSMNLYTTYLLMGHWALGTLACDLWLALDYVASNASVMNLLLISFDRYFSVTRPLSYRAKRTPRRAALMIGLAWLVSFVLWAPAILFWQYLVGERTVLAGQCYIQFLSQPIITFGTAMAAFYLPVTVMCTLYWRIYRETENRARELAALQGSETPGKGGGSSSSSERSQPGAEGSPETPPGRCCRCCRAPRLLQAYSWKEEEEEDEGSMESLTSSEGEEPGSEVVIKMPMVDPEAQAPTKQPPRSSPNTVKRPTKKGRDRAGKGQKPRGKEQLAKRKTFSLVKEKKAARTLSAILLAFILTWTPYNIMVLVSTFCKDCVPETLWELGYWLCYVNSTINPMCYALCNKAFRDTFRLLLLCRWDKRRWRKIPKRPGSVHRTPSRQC
Assay: mAChR M1 cell-based functional assay (calcium mobilization), PAM activity: increase in the EC20 acetylcholine response
Conditions: CHO-K1 cells expressing hM1; potentiation of EC20 acetylcholine response
Report as a plain number; the unit % is understood.

Examples from the recorded data:
{"compound": "Cn1cc(-c2ccc(Cn3cc(C(=O)N[C@H]4CCOC[C@@H]4O)c4nccn4c3=O)c(F)c2)cn1 [Compound B5]", "scale unit": "%", "Emax": 68}
{"compound": "Cn1cc(-c2ccc(Cn3cc(C(=O)N[C@H]4CCCC[C@@H]4O)c4ncncc4c3=O)c(F)c2)cn1 [Compound A89]", "scale unit": "%", "Emax": 51}
{"compound": "Cn1cc(-c2ccc(Cn3cc(C(=O)N[C@H]4CCCC[C@@H]4O)c4occc4c3=O)c(F)c2)cn1 [Compound D13]", "scale unit": "%", "Emax": 81}

Name the recorded Emax of the item O=C(N[C@H]1CCCCC[C@@H]1O)c1cn(Cc2ccc(-n3cccn3)cc2)c(=O)n2ccnc12 [Compound B16] in your answer.
81

====

target: human mAChR M1 (Homo sapiens, UniProt P11229); construct: host or cells: CHO-K1 cells (ATCC), stably transfected using Lipofectamine2000; test: mAChR M1 cell-based functional assay (calcium mobilization), agonist activity upon compound addition; details: CHO-K1 cells expressing hM1; relative to the maximum for acetylcholine
readout: Emax

{"chem smiles": "Cn1ccc(-c2ccc(Cn3cc(C(=O)N[C@H]4CCC[C@@H]4O)c4nccnc4c3=O)c(F)c2)n1", "Emax": "41%"}
{"chem smiles": "Cn1cc2c(-c3cc(F)c(Cn4cc(C(=O)NC5CCOCC5)c5occc5c4=O)c(F)c3)cccc2n1", "Emax": "< 5%"}
{"chem smiles": "Cn1cc(-c2ccc(Cn3cc(C(=O)N[C@@H]4CC[C@H]4O)c4nccn4c3=O)c(F)c2)cn1", "Emax": "29%"}
{"chem smiles": "Cn1cc(-c2ccc(Cn3cc(C(=O)N[C@H]4CCC[C@@H]4O)c4ncccc4c3=O)cn2)cn1", "Emax": "< 5%"}
{"chem smiles": "Cn1cc(-c2ccc(Cn3cc(C(=O)N[C@H]4CCOC[C@@H]4O)c4ncccc4c3=O)cn2)cn1", "Emax": "34%"}

Attention now shifts to the item below.
Name the recorded Emax of the item Cn1ccc(-c2ccc(Cn3cc(C(=O)N[C@H]4CCCC[C@@H]4O)c4sccc4c3=O)c(F)c2)n1 in your answer.
< 5%
